Measured values drawn from ChEMBL document CHEMBL1201862 for this set.

Test system: CAKI-1
experimental_details: NCI tumour cell line growth inhibition, 48 h
Calls of active or inactive are those of the source. Rule as the data show it: active = GI50 up to about 1.1 µM and inactive = higher.
Respond only with the outcome that fits, drawn from y = active, n = inactive

Example results:
[[record]]
compound = "CCNCC(O)COc1ccc2c(c1)[n+]([O-])nc(N)[n+]2[O-] (stereo not given)"
target_or_system = "CAKI-1"
group = "n"

[[record]]
compound = "O=C1C/C(=C/c2ccc(/C=C3/CC(=O)N(c4cccc(Br)c4)C3=O)cc2)C(=O)N1c1cccc(Br)c1"
target_or_system = "CAKI-1"
group = "n"

[[record]]
compound = "C=C1C(=O)C[C@H]2C(=C)C(=O)O[C@@H]2C2C1CC[C@@]2(C)O (stereo not given in full)"
target_or_system = "CAKI-1"
group = "n"

[[record]]
compound = "Clc1cc(OC2C3CC4CC(C3)CC2C4)nc(Cl)n1 (stereo not given)"
target_or_system = "CAKI-1"
group = "y"

[[record]]
compound = "NCCCN(CCCCN(CCCN)CCCc1ccccc1)CCCc1ccccc1"
target_or_system = "CAKI-1"
group = "n"


// return assay outcome for COc1ccc(S(=O)(=O)O)cc1-n1nc(C(=O)Nc2ccccc2)n[n+]1-c1cc(S(=O)(=O)[O-])ccc1OC
n

Hi, sorry to bother you, what did the test record for O=C(O)c1ccccc1[Se][Se]c1ccccc1C(=O)O ?
n

Write down the call the test reported for this compound. Item: CCOC(=O)/C=C1/Nc2cc(F)c(F)cc2NC1=O
n

Outcome logged for N#Cc1c(O)n(-c2ccccc2)c(=O)c2c(N)n[nH]c12 in this assay:
n

# fetch the recorded call for CO[C@H]1CC[C@]2(C)C3=CC[C@@]4(C)C(CC[C@@H]4C(C)CC[C@@H](C)C(C)C)C(=CCC2C1)O3 (stereo not given in full) here
n

Given Cc1cc(S(=O)(=O)Nc2nc(N)n(-c3ccccn3)n2)c(S)cc1Cl , state the outcome it received in this test.
n

Check the results log: what was the call for N#CC(/C(CCCC(=O)Nc1cccc([N+](=O)[O-])c1)=N/NC(=O)c1cc2ccccc2cc1O)c1ccccc1 (stereo not given) ?
n

Given CCOC(=O)[C@@]12NN=N[C@@H]1[C@H]1CO[C@H](c3ccccc3)N1C2=O , state the outcome it received in this test.
n

----------
System: COLO 205
experimental_details: NCI tumour cell line growth inhibition, 48 h
The source made the active and inactive calls. Cut-off read from the data, not from the text of the source: active = GI50 up to about 1.1 µM and inactive = higher.
measured_property: GI50

[[record]]
compound = "O=C(N/N=C/c1ccc([N+](=O)[O-])cc1)c1cccc2nc3ccccc3nc12"
result = "2.65 µM (inactive)"

[[record]]
compound = "CC1CC2C3CCC4=CC(=O)C=CC4(C)C3(F)C(O)CC2(C)C1(O)C(=O)COP(=O)(O)O (stereo not given)"
result = "> 100 µM (inactive)"

[[record]]
compound = "COc1cccc(/C=N/C23CC4CC(CC(C4)C2)C3)c1"
result = "> 100 µM (inactive)"

[[record]]
compound = "Cc1ccc(O)c(C(c2cccc(C(c3cc(C)ccc3O)c3cc(C)ccc3O)c2)c2cc(C)ccc2O)c1"
result = "1.21 µM (inactive)"

[[record]]
compound = "CCOc1cn(C2OC(CO)C(O)C2O)c(=O)[nH]c1=O (stereo not given)"
result = "95.5 µM (inactive)"


Moving on to another compound below.
Give GI50 for COc1cc(CNc2nc3c(NC(C)=O)cc(C(F)(F)F)cc3nc2-c2ccccc2)cc(OC)c1OC
> 100 µM (inactive)
